PROTOCOL_DETAILS: chemical genetic growth profiling, strain panel (AID 1159580);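 note: tested at 20 µM; growth read once vehicle control cultures reached saturation at 30 °C; 1 = growth at the plate median or of vehicle wells; lower values mean less growth of the strain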
CONDITION_DETAILS: S. cerevisiae deletion strains, growth OD, locus YNL128W, strain TEP1, stronger effect = lower value
In all, about 5,500 compounds went through this assay and about 2,000 (36%) were called active. Inconclusive results (about 18%) are left out. The list shows a part of the results.
READOUT: normalized growth
// return just the number, without any unit appended

In [3]: df
Out[3]:
                                   molecule  result_value
0  CN(C)C1C(=O)C(C(N)=O)=C(O)C2(O)C(=O)C3=C(O)c4c(O)ccc(Cl)c4C(C)(O)C3CC12 (centres undefined)          1.02
1       NCCCCCCNS(=O)(=O)c1cccc2c(Cl)cccc12          1.01
2                    C#CCN[C@H](C)Cc1ccccc1         0.998
3  COC(=O)/C(=C1\OC(=O)C(c2ccccc2)=C1O)c1ccccc1          1.02
4  CN=C(NC#N)Nc1ccc(C2=NNC(=O)CC2C)cc1 (centres undefined)             1
5                     Cc1cccc(C)c1N=C1SCCS1             1
6                        O=c1[nH]cnc2ccsc12          1.02
7               NCCNS(=O)(=O)c1cccc2cnccc12         0.986

For CC(C)CCCC(C)C1CCC2C3CC[C@H]4C[C@@H](O)CC[C@]4(C)C3CC[C@]12C (some centres undefined) the molecule record lists normalized growth as 0.972

---

PROTOCOL_DETAILS: chemical genetic growth profiling, strain panel (AID 1159580);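 note: tested at 20 µM; growth read once vehicle control cultures reached saturation at 30 °C; 1 = growth at the plate median or of vehicle wells; lower values mean less growth of the strain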
CONDITION_DETAILS: S. cerevisiae deletion strains, growth OD, locus YOR080W, strain dia2, stronger effect = lower value
Hit rate of the full screen: of about 5,500 compounds, about 2,000 (36%) were called active. Roughly 18% stayed inconclusive and do not appear here. Some of the results follow.
Lab note - cut at 1 for normalized growth: Fulfilled if strictly below, Not fulfilled if not.

Some entries whose results are on file:
COMPOUND	ANSWER_LABEL
COC1CC2CCC(C)C(O)(O2)C(=O)C(=O)N2CCCCC2C(=O)OC(C(C)CC2CCC(O)C(OC)C2)CC(=O)C(C)/C=C(\C)C(O)C(OC)C(=O)C(C)CC(C)/C=C/C=C/C=C/1C (stereo not drawn)	Fulfilled
COc1cc(C(C)=O)cc(OC)c1O	Not fulfilled
O=C(O)c1ccccc1	Fulfilled
NC1=NCCN1CC(=O)O	Not fulfilled
Nc1ccc(C(=O)O)cc1	Not fulfilled

Data request: Lab note: normalized growth threshold 1. Does this compound come in strictly under it? COc1cc(C/C=C/c2ccccc2)c(OC)cc1O
Data returned: Fulfilled

Data request: # TODO verify normalized growth < 1 strictly for this compound: O=C(O)c1ccc(S(=O)(=O)N(Cl)Cl)cc1
Data returned: Fulfilled

Data request: Strictly below 1 in normalized growth? CC(C)c1ccc2c(c1)CCC1C(C)(C(N)=O)CCCC21C (stereo not drawn)
Data returned: Fulfilled

---

This section presents molecules with their documented normalized growth values.
PROTOCOL_DETAILS: chemical genetic growth profiling, strain panel (AID 1159580);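 note: tested at 20 µM; growth read once vehicle control cultures reached saturation at 30 °C; 1 = growth at the plate median or of vehicle wells; lower values mean less growth of the strain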
CONDITION_DETAILS: S. cerevisiae deletion strains, growth OD, locus YEL037C, strain rad23, stronger effect = lower value
In all, about 5,500 compounds went through this assay and about 2,000 (36%) were called active. Another 18% or so got no clear call; they are omitted. The list shows a part of the results.
Reply: number alone, nothing else.

Known results for molecules:
MOLECULE	READOUT	RESULT_VALUE
CC(C)c1ccc2c(c1)CCC1[C@](C)(CN)CCC[C@]21C (stereo partly specified)	normalized growth	1.01
O=C1NC(O)=NC1(c1ccccc1)c1ccccc1	normalized growth	1.01
CN(C)CCCN1c2ccccc2CCc2ccccc21	normalized growth	1

Value of measured normalized growth for the entry CN(C)[C@@H]1C(=O)C(C(N)=O)=C(O)[C@@]2(O)C(=O)C3=C(O)c4c(O)ccc(Cl)c4[C@@](C)(O)[C@H]3C[C@@H]12 : 0.983

CC(C)C[C@@H](CN)CC(=O)O yielded normalized growth of 1.01

So for CC(C)CCCC(C)C1CCC2C3CC(=O)[C@H]4C[C@@H](O)CC[C@]4(C)C3CC[C@]12C (stereo partly specified) , the logged normalized growth turned out to be 1

normalized growth recorded for this molecule, Cc1cn[nH]c1 , is 1.01

# normalized growth (molecule: CC(=O)N[C@@H](Cc1c[nH]c2ccccc12)C(N)=O ) is 1.02

# normalized growth of CCC(C)[C@H]1O[C@]2(C=C[C@@H]1C)C[C@@H]1C[C@@H](C/C=C(\C)[C@@H](OC3C[C@H](OC)C(O[C@H]4C[C@H](OC)[C@@H](O)[C@H](C)O4)[C@H](C)O3)[C@@H](C)/C=C/C=C3\CO[C@@H]4[C@H](O)C(C)=C[C@@H](C(=O)O1)[C@]34O)O2 (stereo partly specified) = 0.973
